// data source = ChEMBL document CHEMBL1123302

- assayed system: UniProtKB P14600
- Sequence (P14600 whole entry, looked up): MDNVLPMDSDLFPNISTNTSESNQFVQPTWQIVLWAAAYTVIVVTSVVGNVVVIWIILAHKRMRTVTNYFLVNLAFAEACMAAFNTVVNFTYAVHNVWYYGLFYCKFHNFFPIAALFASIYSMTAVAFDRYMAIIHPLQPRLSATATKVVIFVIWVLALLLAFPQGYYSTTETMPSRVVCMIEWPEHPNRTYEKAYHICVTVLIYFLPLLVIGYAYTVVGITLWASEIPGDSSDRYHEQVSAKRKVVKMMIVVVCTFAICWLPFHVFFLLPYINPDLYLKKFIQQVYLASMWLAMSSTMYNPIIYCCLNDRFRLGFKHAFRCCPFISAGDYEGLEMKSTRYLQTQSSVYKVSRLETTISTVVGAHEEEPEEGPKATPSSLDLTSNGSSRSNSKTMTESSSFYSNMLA
- assay name: Antagonistic activity against Substance P(6-11) receptor in rat spinal cord at concentration of 10 uM.
attribute measured: Change in amplitude response (%)
Kindly provide the numeric value in % only, without the unit symbol.

compound=COC(=O)[C@H](CCSC)NC(=O)[C@H](CC(C)C)NC(=O)[C@@H](Cc1c[nH]c2ccccc12)NC(=O)[C@H](Cc1ccccc1)NC(=O)[C@@H](Cc1ccccc1)NC(=O)[C@H](CCCN=C(N)N)NC(=O)[C@H](CC(N)=O)NC(=O)OC(C)(C)C attribute_measured="Change in amplitude response" measured_number=-56
compound="COC(=O)[C@H](CCSC)NC(=O)[C@H](CC(C)C)NC(=O)[C@@H](Cc1c[nH]c2ccccc12)NC(=O)[C@H](Cc1ccccc1)NC(=O)[C@@H](Cc1ccccc1)NC(=O)[C@H](CCCN=C(N)N)NC(=O)[C@H](CC(N)=O)NC(=O)C1CCCN1C(=O)[C@H](CCCCNC(=O)OCc1ccccc1)NC(=O)C1CCCN1C(=O)[C@H](CCCN=C(N)N)NC(=O)OCc1ccccc1 (stereo in doubt)" attribute_measured="Change in amplitude response" measured_number=-75

Would you kindly look at the next entry?
## Task Which Change in amplitude response is reported for this compound? COC(=O)[C@@H](CCSC)NC(=O)[C@H](CC(C)C)NC(=O)CNC(=O)[C@@H](Cc1c[nH]c2ccccc12)NC(=O)[C@@H](Cc1c[nH]c2ccccc12)NC(=O)[C@H](CCC(N)=O)NC(=O)[C@H](CCC(N)=O)NC(=O)[C@@H]1CCCN1C(=O)[C@H](CCCCNC(=O)OCc1ccccc1)NC(=O)[C@@H]1CCCN1C(=O)[C@H](CCCN=C(N)N)NC(=O)OCc1ccccc1
## Result -33
